Measured IC50, listed per entry for reference.
- protocolSummary: Inhibitory activity on sorbital accumulation in human retinal cells was determined
- Format: functional, cell-based
Give the value in µM but do not write µM after it.

In the examples that follow, each entry is paired with its recorded IC50.
Oc1c(Oc2cc(Br)c(Br)c(Br)c2O)cc(Br)c(Br)c1Br 1
Oc1c(Br)cc(Oc2cc(Br)c(Br)c(Br)c2O)c(O)c1Br 8
Oc1c(Oc2cc(Cl)c(Cl)c(Cl)c2O)cc(Cl)c(Cl)c1Cl 0.24

Input line: I am curious: what IC50 value has been reported for `O=C1NC(=O)[C@@]2(CCOc3ccc(F)cc32)N1` ?
Output line: 4

Input line: I am curious: what IC50 value has been reported for `Oc1c(Oc2cc(Br)c(Br)c(Br)c2O)cc(F)c(Br)c1Br` ?
Output line: 11

Input line: I am curious: what IC50 value has been reported for `Oc1c(Br)cc(Br)cc1Oc1c(O)c(Br)c(Br)c(Br)c1Br` ?
Output line: 3
